# METHOD: qHTS of pediatric cancer cell lines to identify multiple opportunities for drug repurposing: Primary screen for MG 63 (6-TG R) cells (AID 1347105); note: nearly all actives have a fitted effect of over 50% in size
# STATED_CONDITIONS: MG 63 (6-TG R) viability, CellTiter-Glo, 48 h; series mostly up to 46 µM
Inconclusive results are not listed. The source made the active and inactive calls. Calls come from the whole dose curve; as a rule, active = well fitted cell-killing curve with a large enough effect; inconclusive = small, poorly fitted or top-dose-only effect; inactive = no such curve, though single readings can be large or run the other way.
Response enum: active, inactive

Solved cases below.
CC(C)(C)OC(=O)CN(Cc1ccc(Cl)cc1)Cc1ccc([N+](=O)[O-])s1 | inactive
CCCC(CCC)C(=O)O | inactive
CN(C)c1ccc(Nc2nc(N)n(C(=O)c3c(F)cccc3F)n2)cc1 | active

## Input Tell me the assay call for Cc1cn[nH]c1 please.
## Output inactive

## Input Tell me the assay call for Cc1[nH]c(=O)c(C#N)cc1-c1ccc2nccn2c1 please.
## Output inactive

## Input Tell me the assay call for Cc1ccccc1C(OCCN(C)C)c1ccccc1 (stereo not given) please.
## Output inactive

## Input Tell me the assay call for O=C(C=Cc1ccc(/C=C/C(=O)Nc2ccc(C3=NCCN3)cc2)cc1)Nc1ccc(C2=NCCN2)cc1 please.
## Output inactive

## Input Tell me the assay call for NNCCc1ccccc1 please.
## Output inactive

## Input Tell me the assay call for CC(C=CC1=C(C)CCCC1(C)C)=CC=CC(C)=CC(=O)O please.
## Output active

## Input Tell me the assay call for CCOc1cc(C(=O)Nc2ccc(Cl)c(-c3nc4ccccc4[nH]3)c2)cc(OCC)c1OCC please.
## Output inactive

## Input Tell me the assay call for Cc1cnc(NC(=O)C2=C(O)c3ccccc3S(=O)(=O)N2C)s1 please.
## Output inactive

## Input Tell me the assay call for COc1cc2c(cc1OC)CN(CCc1ccc(NC(=O)c3cccc4c(=O)c5cccc(OC)c5[nH]c34)cc1)CC2 please.
## Output inactive

## Input Tell me the assay call for CCCc1nc2c(C)cc(-c3nc4ccccc4n3C)cc2n1Cc1ccc(-c2ccccc2C(=O)O)cc1 please.
## Output inactive

## Input Tell me the assay call for O=c1[nH]cnc2[nH]ncc12 please.
## Output inactive

## Input Tell me the assay call for S=C(NCc1ccc2c(c1)OCO2)N1CCN(c2ncnc3c2oc2ccccc23)CC1 please.
## Output inactive

## Input Tell me the assay call for C[C@]1(c2nc3c(C(N)=O)cccc3[nH]2)CCCN1 please.
## Output inactive

## Input Tell me the assay call for Cc1csc(NC(=O)c2sc3nc4c(c(C(F)(F)F)c3c2N)CCC4)n1 please.
## Output inactive

## Input Tell me the assay call for Nc1cccc(S(=O)(=O)N2CCCN(S(=O)(=O)c3ccc4c(c3)OCCO4)CC2)c1 please.
## Output inactive

## Input Tell me the assay call for C[C@]12CCC(=O)C=C1CC[C@@H]1[C@@H]2[C@@H](O)C[C@@]2(C)[C@H]1CC[C@]2(O)C(=O)CO please.
## Output inactive

## Input Tell me the assay call for CC(=O)Oc1ccccc1C(=O)O please.
## Output inactive

## Input Tell me the assay call for Cc1cc(-c2ccc(CC(=O)Nc3ccc(-c4cccnc4)cc3)cc2)ccn1 please.
## Output inactive

## Input Tell me the assay call for COc1cc(Nc2ncc3c(n2)-c2ccc(Cl)cc2C(c2c(F)cccc2OC)=NC3)ccc1C(=O)O please.
## Output active

## Input Tell me the assay call for C[C@]12CC[C@H](O)CC1=CC[C@@H]1[C@H]2CC[C@]2(C)C(c3cccnc3)=CC[C@H]12 please.
## Output inactive

----------
# METHOD: qHTS of pediatric cancer cell lines to identify multiple opportunities for drug repurposing: Primary screen for BT-37 cells (AID 1347094)
# STATED_CONDITIONS: BT-37 viability, CellTiter-Glo luminescence, 48 h; series mostly up to 57.3 µM
Records with an inconclusive call do not appear. The source made the active and inactive calls. Calls follow the shape of the dose curve; as a rule, active = well fitted cell-killing curve with a large enough effect; inconclusive = small, poorly fitted or top-dose-only effect; inactive = flat fitted curve, though single readings scatter.
Response enum: true (active), false (inactive)

Solved cases below.
Cc1ccccc1C(OCCN(C)C)c1ccccc1 (stereo not given) | false
Cc1ccc(N(CC2=NCCN2)c2cccc(O)c2)cc1 | false
O=C(Nc1ccc(F)c(C(F)(F)F)c1)Nc1nnc(-c2ccncc2)s1 | false

## Input Tell me the assay call for Nc1ccc(S(=O)(=O)Nc2ccnn2-c2ccccc2)cc1 please.
## Output false

## Input Tell me the assay call for Cc1ccnc(NS(=O)(=O)c2ccc(NC(=O)Nc3ccc(S(=O)(=O)Nc4nccc(C)n4)cc3)cc2)n1 please.
## Output true

## Input Tell me the assay call for CC(c1cc2ccccc2s1)N(O)C(N)=O (stereo not given) please.
## Output false

----------
# METHOD: Primary qHTS for inhibitors of nuclear receptor binding SET domain protein 2 (NSD2) in an isogenic RCH-ACV NSD2 p.E1099K mutant (9B) (AID 1645876); note: nearly all actives have a fitted effect of over 70% in size
# STATED_CONDITIONS: RCH-ACV (leukaemia line) NSD2 E1099K (9B) viability, CellTiter-Glo, 72 h; series mostly up to 44.9 µM
Inconclusive results are not listed. Calls of active or inactive are those of the source. Calls follow the shape of the dose curve; as a rule, active = well fitted inhibition curve with a large enough effect; inconclusive = small, poorly fitted or top-dose-only effect; inactive = flat fitted curve, though single readings scatter.
Response enum: active, inactive

NC[C@H](O)c1ccc(O)c(O)c1 | inactive

## Input Tell me the assay call for NCCCC(N)(C(=O)O)C(F)F (stereo not given) please.
## Output inactive

## Input Tell me the assay call for Cc1cnc(NC(=O)C2=C(O)c3ccccc3S(=O)(=O)N2C)s1 please.
## Output inactive

## Input Tell me the assay call for Nc1nc2[nH]cc(CCc3ccc(C(=O)N[C@@H](CCC(=O)O)C(=O)O)cc3)c2c(=O)[nH]1 please.
## Output active

## Input Tell me the assay call for Nc1ccc(S(=O)(=O)Nc2ccnn2-c2ccccc2)cc1 please.
## Output inactive

## Input Tell me the assay call for N=c1nc(N2CCCCC2)cc(N)n1O please.
## Output inactive

----------
Each entry below lists one item and its recorded Potency value.
# METHOD: Quantitative High-Throughput drug screen in 47 multiple myeloma cell lines against the NCATS MIPE library collection: MMM1_PLB cell viability assay (AID 1918976); note: potency is the fitted concentration of half-maximal effect; nearly all actives have a fitted effect of over 35% in size
# STATED_CONDITIONS: MMM1 myeloma cells viability, CellTiter-Glo, 48 h; series mostly up to 45.8 µM
Inconclusive results are not listed. Activity calls are given as the source filed them. Calls follow the shape of the dose curve; as a rule, active = well fitted cell-killing curve with a large enough effect; inconclusive = small, poorly fitted or top-dose-only effect, or effect the other way; inactive = no such curve, though single readings can be large or run the other way.

## Input Look up Potency: COc1ccc2c3n(c(=NC(=O)c4cccnc4)nc2c1OC)CCN3
## Output 4.69 µM (active)

----------
# METHOD: Quantitative High-Throughput drug screen in 47 multiple myeloma cell lines against the NCATS MIPE library collection: OPM2_DSMZ cell viability assay (AID 1919872); note: nearly all actives have a fitted effect of over 30% in size
# STATED_CONDITIONS: OPM2 myeloma viability, CellTiter-Glo ATP luminescence, 48 h; series mostly up to 45.8 µM
Records with an inconclusive call do not appear. Calls of active or inactive are those of the source. Calls come from the whole dose curve; as a rule, active = well fitted cell-killing curve with a large enough effect; inconclusive = small, poorly fitted or top-dose-only effect, or effect the other way; inactive = no such curve, though single readings can be large or run the other way.
Response enum: True (active), False (inactive)

Solved cases below.
NC[C@H](O)c1ccc(O)c(O)c1 | False
NCCCC(N)(C(=O)O)C(F)F (stereo unspecified) | False

Now for a further compound.
## Input Tell me the assay call for CCn1cc(C(=O)O)c(=O)c2cc(F)c(N3CCNC(C)C3)c(F)c21 (stereo unspecified) please.
## Output False

----------
# METHOD: qHTS of pediatric cancer cell lines to identify multiple opportunities for drug repurposing: Confirmatory screen for SJ-GBM2 cells (AID 1347116);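 note: 48 hour compound exposure; nearly all actives have a fitted effect of over 60% in size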
# STATED_CONDITIONS: SJ-GBM2 glioblastoma cells, viability; series mostly up to 45.9 µM
# Experimental: Drug repurposing or repositioning has been offered as a strategy for drug development in oncology programs. […] [1] Shen, M et al. Quantitative high-throughput phenotypic screening of pediatric cancer cell lines identifies multiple opportunities for drug repurposing. […] Cells were assayed in growth media at a density of 500-1,000 cells/well. […] After a 15 min incubation at room temperature, samples were analyzed for luminescence intensity using a ViewLux High-throughput CCD imager equipped with clear filters.
Records with an inconclusive call do not appear. Active and inactive are the calls of the source. Calls come from the whole dose curve; as a rule, active = well fitted cell-killing curve with a large enough effect; inconclusive = small, poorly fitted or top-dose-only effect, or effect the other way; inactive = no such curve, though single readings can be large or run the other way.
Response enum: YES (active), NO (inactive)

CNCc1ccc(-c2[nH]c3cc(F)cc4c3c2CCNC4=O)cc1 | NO

## Input Tell me the assay call for OC[C@H](Cc1ccccc1)Nc1nc(Oc2ccc3c(c2)CCC3)nc2c1ncn2Cc1ccc(-c2ccccc2)cc1 please.
## Output NO

## Input Tell me the assay call for Nc1nc2ccc(OC(F)(F)F)cc2s1 please.
## Output NO

## Input Tell me the assay call for CCOc1ccn(-c2ccc(F)cc2)c(=O)c1C(=O)Nc1ccc(Oc2ccnc(N)c2Cl)c(F)c1 please.
## Output YES

----------
# METHOD: qHTS of pediatric cancer cell lines to identify multiple opportunities for drug repurposing: Primary screen for LAN-5 cells (AID 1347100)
# STATED_CONDITIONS: LAN-5 neuroblastoma viability, CellTiter-Glo luminescence, 48 h; series mostly up to 46 µM
Records with an inconclusive call do not appear. Active and inactive are the calls of the source. The call rests on the fitted dose curve; in most records, active means well fitted cell-killing curve with a large enough effect; inconclusive means small, poorly fitted or top-dose-only effect; inactive means no such curve, though single readings can be large or run the other way.
Response enum: active, inactive

Solved cases below.
CCOc1ccn(-c2ccc(F)cc2)c(=O)c1C(=O)Nc1ccc(Oc2ccnc(N)c2Cl)c(F)c1 | active
Nc1cccc(S(=O)(=O)N2CCCN(S(=O)(=O)c3ccc4c(c3)OCCO4)CC2)c1 | inactive
Cc1ccc(-n2nc(C(C)(C)C)cc2NC(=O)Nc2ccc(OCCN3CCOCC3)c3ccccc23)cc1 | inactive
COCCNCCCn1c(C(=O)CF)c(-c2ccc(C)cc2)c2c(N)ncnc21 | inactive
O=C1CCc2cc(OCCCCc3nnnn3C3CCCCC3)ccc2N1 | inactive

Now for a further compound.
## Input Tell me the assay call for Cc1ccc(N(CC2=NCCN2)c2cccc(O)c2)cc1 please.
## Output inactive
